target: T1, biotin-labeled human CD137 fused to human IgG1 Fc fragment (human, biotin-labeled); assay: bead ELISA (chemiluminescence), purified IgG on biotin labeled human CD137-Fc on streptavidin beads
T1 construct: also called human CD137-Fc; biotin-human CD137-Fc
T1 sequence (chain, as listed by the source limits assumed): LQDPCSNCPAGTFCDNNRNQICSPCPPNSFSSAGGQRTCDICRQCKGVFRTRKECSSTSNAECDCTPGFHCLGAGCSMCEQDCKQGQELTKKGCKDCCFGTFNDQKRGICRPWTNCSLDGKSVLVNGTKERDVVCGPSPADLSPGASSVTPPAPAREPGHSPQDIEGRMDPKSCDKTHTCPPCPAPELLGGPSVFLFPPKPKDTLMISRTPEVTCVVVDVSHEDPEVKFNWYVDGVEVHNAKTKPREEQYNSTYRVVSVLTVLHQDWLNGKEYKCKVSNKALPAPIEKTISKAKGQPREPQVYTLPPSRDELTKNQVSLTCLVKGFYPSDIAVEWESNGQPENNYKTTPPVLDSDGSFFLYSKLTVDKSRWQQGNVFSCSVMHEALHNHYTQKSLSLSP
readoutName: RLU (RLU)

binder	numericValue
DADU01_3#001 (antibody, human IgG1, V domains shown, IgG: VH joined to human IgG1 CH1-Fc; also called dBBDu_126; dBBDu126) VH: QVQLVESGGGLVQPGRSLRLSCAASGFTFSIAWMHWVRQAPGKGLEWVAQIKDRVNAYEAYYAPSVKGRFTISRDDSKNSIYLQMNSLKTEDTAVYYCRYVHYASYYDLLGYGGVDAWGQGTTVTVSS VL: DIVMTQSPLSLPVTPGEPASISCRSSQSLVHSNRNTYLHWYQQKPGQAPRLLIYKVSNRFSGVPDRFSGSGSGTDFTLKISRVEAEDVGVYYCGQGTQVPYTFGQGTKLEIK	95300
DADU01_3#018 (antibody, human IgG1, V domains shown, IgG: VH joined to human IgG1 CH1-Fc; also called dBBDu123) VH: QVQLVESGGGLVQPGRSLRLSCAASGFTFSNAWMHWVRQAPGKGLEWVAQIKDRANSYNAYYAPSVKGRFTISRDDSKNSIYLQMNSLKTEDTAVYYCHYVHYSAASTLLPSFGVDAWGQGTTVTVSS VL: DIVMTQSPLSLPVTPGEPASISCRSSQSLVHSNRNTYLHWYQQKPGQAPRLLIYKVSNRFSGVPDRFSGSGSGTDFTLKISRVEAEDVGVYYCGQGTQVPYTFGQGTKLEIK	32800
DXDU01_3#072 (antibody, human IgG1, V domains shown, IgG: VH joined to human IgG1 CH1-Fc; also called dBBDu122) VH: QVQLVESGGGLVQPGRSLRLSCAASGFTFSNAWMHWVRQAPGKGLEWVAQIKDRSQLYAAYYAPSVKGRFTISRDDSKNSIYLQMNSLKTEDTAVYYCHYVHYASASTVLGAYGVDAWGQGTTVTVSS VL: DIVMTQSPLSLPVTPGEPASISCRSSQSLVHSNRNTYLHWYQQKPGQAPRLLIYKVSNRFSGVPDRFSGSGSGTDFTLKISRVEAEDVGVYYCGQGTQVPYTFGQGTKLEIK	14100
DADU01_3#002 (antibody, human IgG1, V domains shown, IgG: VH joined to human IgG1 CH1-Fc; also called dBBDu124) VH: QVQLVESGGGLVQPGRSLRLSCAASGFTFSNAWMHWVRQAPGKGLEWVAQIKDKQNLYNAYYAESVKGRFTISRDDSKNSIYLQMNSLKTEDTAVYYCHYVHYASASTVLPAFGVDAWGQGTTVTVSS VL: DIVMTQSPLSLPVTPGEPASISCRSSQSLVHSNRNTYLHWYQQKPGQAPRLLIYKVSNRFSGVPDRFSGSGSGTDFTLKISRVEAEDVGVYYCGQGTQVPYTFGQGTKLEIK	39100
DXDU01_3#051 (antibody, human IgG1, V domains shown, IgG: VH joined to human IgG1 CH1-Fc; also called dBBDu127) VH: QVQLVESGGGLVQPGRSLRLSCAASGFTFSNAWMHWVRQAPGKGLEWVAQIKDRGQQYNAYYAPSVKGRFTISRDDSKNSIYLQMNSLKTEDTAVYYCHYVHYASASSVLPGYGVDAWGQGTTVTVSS VL: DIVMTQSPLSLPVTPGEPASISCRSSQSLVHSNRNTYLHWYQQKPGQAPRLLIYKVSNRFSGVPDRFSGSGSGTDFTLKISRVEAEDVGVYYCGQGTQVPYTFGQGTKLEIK	38100
DXDU01_3#094 (antibody, human IgG1, V domains shown, IgG: VH joined to human IgG1 CH1-Fc; also called dBBDu121) VH: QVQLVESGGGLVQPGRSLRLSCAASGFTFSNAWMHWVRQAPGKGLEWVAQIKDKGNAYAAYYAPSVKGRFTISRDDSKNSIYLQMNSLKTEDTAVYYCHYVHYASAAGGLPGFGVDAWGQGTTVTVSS VL: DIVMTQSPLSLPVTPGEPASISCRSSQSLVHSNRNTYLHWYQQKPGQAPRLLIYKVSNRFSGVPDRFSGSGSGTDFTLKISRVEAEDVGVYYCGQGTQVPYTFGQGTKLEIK	24200
